assayed target: HiBit-KRAS^G12C (Homo sapiens, UniProt P01116, G12C)
Sequence (P01116 1-186 isoform P01116-2 G12C limits assumed): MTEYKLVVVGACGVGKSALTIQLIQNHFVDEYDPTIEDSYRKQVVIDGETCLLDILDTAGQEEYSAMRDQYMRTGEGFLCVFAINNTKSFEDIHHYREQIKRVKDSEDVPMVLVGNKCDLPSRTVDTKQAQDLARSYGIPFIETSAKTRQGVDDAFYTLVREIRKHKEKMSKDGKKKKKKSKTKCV
measurement protocol: HiBit degradation assay in MiaPaCa-2 HiBit-KRas^G12C cells
Type: cell-based
experimental conditions: MIA PaCa-2, MiaPaCa-2 HiBit-KRas^G12C cells; 0.5% DMSO; 24 hours; maximum degradation; read-out: KRas^G12C-HiBiT (MiaPaCa; 0.5% DMSO) DMax
Dmax reference

Query: Dear colleague, please send me the reported Dmax for C=CC(=O)N1CCN(c2nc(OCCN3CCC4(CC3)CN(c3cc([C@@H](C(=O)N5C[C@H](O)C[C@H]5C(=O)N[C@@H](C)c5ccc(-c6scnc6C)cc5)C(C)C)on3)C4)nc3c(F)c(-c4cc(O)cc5ccccc45)c(Cl)cc23)C[C@@H]1CC#N (atropisomer, axis not shown) when you can.
Response: < 35%

Query: Dear colleague, please send me the reported Dmax for `C=CC(=O)N1CCN(c2nc(O[C@H](C)CN3CCC(OCCOCC(=O)N[C@H](C(=O)N4C[C@H](O)C[C@H]4C(=O)N[C@@H](C)c4ccc(-c5scnc5C)cc4)C(C)(C)C)CC3)nc3c2CCN(c2cc(O)cc4ccccc24)C3)C[C@@H]1CC#N` when you can.
Response: < 35%

Query: Dear colleague, please send me the reported Dmax for `C=CC(=O)N1CCN(c2nc(OCCN3CCC(COCC(=O)N[C@H](C(=O)N4C[C@H](O)C[C@H]4C(=O)N[C@@H](C)c4ccc(-c5scnc5C)cc4)C(C)(C)C)CC3)nc3c(F)c(-c4nc(N)cc5ccccc45)c(Cl)cc23)C[C@@H]1CC#N` when you can.
Response: 35 to 70%

Query: Dear colleague, please send me the reported Dmax for C=CC(=O)N1CCN(c2nc(OCCN3CCC(COCC(=O)N[C@H](C(=O)N4C[C@@H](O)C[C@H]4C(=O)N[C@@H](C)c4ccc(-c5scnc5C)cc4)C(C)(C)C)CC3)nc3c(F)c(-c4cc(O)cc5ccccc45)c(Cl)cc23)C[C@@H]1CC#N (atropisomer, axis not shown) when you can.
Response: 35 to 70%

Query: Dear colleague, please send me the reported Dmax for `C=CC(=O)N1CCN(c2nc(O[C@H](C)CN3CCC(COc4cc([C@H](C(=O)N5C[C@H](O)C[C@H]5C(=O)N[C@@H](C)c5ccc(-c6scnc6C)cc5)C(C)C)on4)CC3)nc3c(F)c(-c4cc(O)cc5ccccc45)c(Cl)cc23)C[C@@H]1CC#N` when you can.
Response: > 70%

Query: Dear colleague, please send me the reported Dmax for `C=CC(=O)N1CCN(c2nc(O[C@H](C)CN3CCC(OCCOCC(=O)N[C@H](C(=O)N4C[C@@H](O)C[C@H]4C(=O)N[C@@H](C)c4ccc(-c5scnc5C)cc4)C(C)(C)C)CC3)nc3c(F)c(-c4cc(O)cc5ccccc45)c(Cl)cc23)CC1` when you can.
Response: 35 to 70%

Query: Dear colleague, please send me the reported Dmax for `C=CC(=O)N1CCN(c2nc(OCCN3CCC(COCC(=O)N[C@H](C(=O)N4C[C@H](O)C[C@H]4C(=O)N[C@@H](C)c4ccc(-c5scnc5C)cc4)C(C)(C)C)CC3)nc3c(F)c(-c4nc(N)cc(C)c4C(F)(F)F)c(Cl)cc23)C[C@@H]1CC#N` when you can.
Response: > 70%

Query: Dear colleague, please send me the reported Dmax for `C=CC(=O)N1CCN(c2nc(OCCN3CCC(COCC(=O)N[C@H](C(=O)N4C[C@H](O)C[C@H]4C(=O)N[C@@H](C)c4ccc(-c5scnc5C)cc4)C(C)(C)C)CC3)nc3c(F)c(-c4cccc5cccc(C)c45)c(Cl)cc23)C[C@@H]1CC#N` when you can.
Response: 35 to 70%

* * *

assayed target: HiBit-KRAS^G12C (Homo sapiens, UniProt P01116, G12C)
measurement protocol: HiBit degradation assay in MiaPaCa-2 HiBit-KRas^G12C cells
Assay type: cell-based
experimental conditions: MIA PaCa-2, MiaPaCa-2 HiBit-KRas^G12C cells; 0.5% DMSO; 24 hours; maximum degradation; read-out: KRas^G12C-HiBiT (MiaPaCa; 0.5% DMSO) DMax
assay readout: Dmax

Some solved cases for reference:
>>> recorded_result("C=CC(=O)N1CCN(c2nc(OCCN3CCC(OCCOCC(=O)N[C@H](C(=O)N4C[C@H](O)C[C@H]4C(=O)N[C@@H](C)c4ccc(-c5scnc5C)cc4)C(C)(C)C)CC3)nc3c(F)c(-c4cc(O)cc5ccccc45)c(Cl)cc23)CC1")
"35 to 70%"
>>> recorded_result("C=CC(=O)N1CCN(c2nc(OCCN3CC[C@H](COCC(=O)N[C@H](C(=O)N4C[C@H](O)C[C@H]4C(=O)N[C@@H](C)c4ccc(-c5scnc5C)cc4)C(C)(C)C)C3)nc3c(F)c(-c4cc(O)cc5ccccc45)c(Cl)cc23)C[C@@H]1CC#N")
"35 to 70%"
>>> recorded_result("C=C(F)C(=O)N1CCN(c2nc(OCCN3CCC(COCC(=O)N[C@H](C(=O)N4C[C@H](O)C[C@H]4C(=O)N[C@@H](C)c4ccc(-c5ccnn5C)cc4)C(C)(C)C)CC3)nc3c(F)c(-c4cc(O)cc5ccccc45)c(Cl)cc23)C[C@@H]1CC#N (atropisomer, axis not shown)")
"> 70%"

Query molecule follows.
Query: Fill in: Dmax on HiBit-KRAS^G12C (Homo sapiens, UniProt P01116, G12C), entry C=C(F)C(=O)N1CCN(c2nc(OCCN3CCC(COc4cc([C@H](C(=O)N5C[C@H](O)C[C@H]5C(=O)N[C@@H](C)c5ccc(-c6scnc6C)cc5)C(C)C)on4)CC3)nc3c(F)c(-c4cc(O)cc5ccccc45)c(Cl)cc23)C[C@@H]1CC#N (atropisomer, axis not shown)
Response: > 70%

* * *

DC50 reference
assayed target: HiBit-KRAS^G12C (Homo sapiens, UniProt P01116, G12C)
measurement protocol: HiBit degradation assay in SW1573 HiBit-KRas^G12C cells
Format: cell-based
Parameters: expressed in transfected cells; host or cells: SW1573 (clone E6), modified pcDNA3.1 vector, TK promoter
experimental conditions: SW1573 HiBit-KRas^G12C, 0.1% DMSO, 24 hours; read-out: KRas^G12C-HIBit (SW1573; 0.1% DMSO) DC50*

>>> recorded_result("C=CC(=O)N1CCN(c2nc(OCCN3CCC(COCC(=O)N[C@H](C(=O)N4C[C@H](O)C[C@H]4C(=O)N[C@@H](C)c4ccc(-c5scnc5C)cc4)C(C)(C)C)CC3)nc3c(F)c(-c4cc(O)cc5ccccc45)c(Cl)cc23)C[C@@H]1CC#N")
"100 to 1000 nM"

Query: Dear colleague, please send me the reported DC50 for `C=CC(=O)N1CCN(c2nc(O[C@H](C)CN3CCC(COCC(=O)N[C@H](C(=O)N4C[C@H](O)C[C@H]4C(=O)N[C@@H](C)c4ccc(-c5scnc5C)cc4)C(C)(C)C)CC3)nc3c2CCN(c2cc(O)cc4ccccc24)C3)C[C@@H]1CC#N` when you can.
Response: > 1000 nM

Query: Dear colleague, please send me the reported DC50 for `C=CC(=O)N1CCN(c2nc(O[C@H](C)CN3CCC(OCCOCC(=O)N[C@H](C(=O)N4C[C@@H](O)C[C@H]4C(=O)N[C@@H](C)c4ccc(-c5scnc5C)cc4)C(C)(C)C)CC3)nc3c(F)c(-c4cc(O)cc5ccccc45)c(Cl)cc23)CC1` when you can.
Response: > 1000 nM

Query: Dear colleague, please send me the reported DC50 for `C=CC(=O)N1CCN(c2nc(O[C@H](C)CN3CCN(C4CN(CC(=O)N[C@H](C(=O)N5C[C@H](O)C[C@H]5C(=O)N[C@@H](C)c5ccc(-c6scnc6C)cc5)C(C)(C)C)C4)CC3)nc3c(F)c(-c4cc(O)cc5ccccc45)c(Cl)cc23)CC1` when you can.
Response: > 1000 nM

* * *

DC50 reference
assayed target: HiBit-KRAS^G12C (Homo sapiens, UniProt P01116, G12C)
measurement protocol: HiBit degradation assay in SW1573 HiBit-KRas^G12C cells
Type: cell-based
Design: expressed in transfected cells; host or cells: SW1573 (clone E6), modified pcDNA3.1 vector, TK promoter
experimental conditions: SW1573 HiBit-KRas^G12C, 0.1% DMSO, 24 hours; read-out: KRas^G12C-HIBit (SW1573; 0.1% DMSO) DC50*

Some solved cases for reference:
>>> recorded_result("C=CC(=O)N1CCN(c2nc(OCCN3CCC(OCCOc4cc([C@H](C(=O)N5C[C@@H](O)C[C@H]5C(=O)N[C@@H](C)c5ccc(-c6scnc6C)cc5)C(C)C)on4)CC3)nc3c(F)c(-c4cc(O)cc5ccccc45)c(Cl)cc23)C[C@@H]1CC#N")
"> 1000 nM"
>>> recorded_result("C=CC(=O)N1CCN(c2nc(O[C@H](C)CN3CCC(OCCOCC(=O)N[C@H](C(=O)N4C[C@H](O)C[C@H]4C(=O)N[C@@H](C)c4ccc(-c5scnc5C)cc4)C(C)(C)C)CC3)nc3c2CCN(c2cc(O)cc4ccccc24)C3)C[C@@H]1CC#N")
"> 1000 nM"
>>> recorded_result("C=CC(=O)N1CCN(c2nc(OCCN3CCC(COCC(=O)N[C@H](C(=O)N4C[C@H](O)C[C@H]4C(=O)N[C@@H](C)c4ccc(-c5scnc5C)cc4)C(C)(C)C)CC3)nc3c(F)c(-c4cc(O)cc5ccccc45)c(Cl)cc23)CC1 (atropisomer, axis not shown) [Compound 9]")
"100 to 1000 nM"

Query compound follows.
Query: Dear colleague, please send me the reported DC50 for `C=CC(=O)N1C[C@H](C)N(c2nc(OCCN3CCC(COCC(=O)N[C@H](C(=O)N4C[C@H](O)C[C@H]4C(=O)N[C@@H](C)c4ccc(-c5scnc5C)cc4)C(C)(C)C)CC3)nc3c(F)c(-c4cc(O)cc5ccccc45)c(Cl)cc23)C[C@H]1C` when you can.
Response: 100 to 1000 nM
